Every entry's value here was drawn from patent US9394268B2.

The following compounds are listed with their measured pIC50 values.
System: LO2
Test: Cell proliferative assay (MTT), LO2
Type: cell-based
Settings: Homo sapiens, L02, 72 h incubation, read-out: IC50s LO2
pIC50: −log10 of the molar value.

pIC50 recorded for this compound, COc1ccc(/C=C/C(=O)c2ccc(OC)c3c2OC(C)(C)C=C3)cc1NC(=O)Cc1cccc(C(F)(F)F)c1 , is < 5.00

pIC50 recorded for this compound, COc1ccc(/C=C/C(=O)c2ccc(OC)c3c2OC(C)(C)C=C3)cc1N , is 5.07

pIC50 recorded for this compound, COc1ccc(/C=C/C(=O)c2ccc(OC)c3c2OC(C)(C)C=C3)cc1OC(=O)C(C)C , is < 5.00

pIC50 recorded for this compound, COc1ccc(/C=C/C(=O)c2ccc(OC)c3c2OC(C)(C)C=C3)cc1NO , is < 4.70

pIC50 recorded for this compound, COc1ccc(/C=C/C(=O)c2ccc(OC)c3c2OC(C)(C)C=C3)cc1OCCN1CCCCC1 , is < 4.70

pIC50 recorded for this compound, COc1ccc(/C=C/C(=O)c2ccc(OC)c3c2OC(C)(C)C=C3)cc1OC(=O)C1CC1 , is < 5.00

pIC50 recorded for this compound, CNc1cc(/C=C/C(=O)c2ccc(OC)c3c2OC(C)(C)C=C3)ccc1OC , is < 4.70

pIC50 recorded for this compound, COc1ccc(/C=C/C(=O)c2ccc(OC)c3c2OC(C)(C)C=C3)cc1OC(=O)CCl , is < 5.00

----------
System: HCT116
Experiment: Cell proliferative assay (MTT), HCT116
Format: cell-based
Conditions: Homo sapiens, HCT-116, 72 h incubation, read-out: IC50s HCT116
pIC50: −log10 of the molar value.
Reported Endpoint: pIC50

Sample records with pIC50:
{"Chemical Smiles": "CCOc1cc(/C=C/C(=O)c2ccc(OC)c3c2OC(C)(C)C=C3)ccc1O", "pIC50": "< 5.00"}
{"Chemical Smiles": "COc1ccc(C(=O)/C=C/c2cccc(F)c2)c2c1C=CC(C)(C)O2", "pIC50": 5.72}
{"Chemical Smiles": "COc1ccc(C(=O)/C=C/c2cccc(O)c2)c2c1C=CC(C)(C)O2", "pIC50": "< 5.00"}

pIC50 recorded for this compound, COc1ccc(C(=O)/C=C/c2ccc(OC)c(OC)c2OC)c2c1C=CC(C)(C)O2 , is < 5.00

pIC50 recorded for this compound, COc1ccc(/C=C/C(=O)c2ccc(OC)c3c2OC(C)(C)C=C3)cc1O , is 5.79

----------
Test system: LO2
Experiment: Cell proliferative assay (MTT), LO2
Format: cell-based
Settings: Homo sapiens, L02, 72 h incubation, read-out: IC50s LO2
pIC50: −log10 of the molar value.
Reported Endpoint: pIC50

{"Molecule": "CCN(CC)c1ccc(/C=C/C(=O)c2ccc(OC(=O)C(C)C)c3c2OC(C)(C)C=C3)cc1", "Tested System": "LO2", "Observed Value": "< 5.00"}
{"Molecule": "C#CCNc1cc(/C=C/C(=O)c2ccc(OC)c3c2OC(C)(C)C=C3)ccc1OC", "Tested System": "LO2", "Observed Value": "< 4.70"}
{"Molecule": "COc1ccc(/C=C/C(=O)c2ccc(OC)c3c2OC(C)(C)C=C3)cc1NS(=O)(=O)Cc1ccccc1", "Tested System": "LO2", "Observed Value": "< 4.70"}
{"Molecule": "COc1ccc(/C=C/C(=O)c2ccc(OC)c3c2OC(C)(C)C=C3)cc1OCCO", "Tested System": "LO2", "Observed Value": "< 5.00"}
{"Molecule": "C=CCOc1cc(/C=C/C(=O)c2ccc(OC)c3c2OC(C)(C)C=C3)ccc1OC", "Tested System": "LO2", "Observed Value": "< 4.70"}
{"Molecule": "COc1ccc(/C=C/C(=O)c2ccc(OC)c3c2OC(C)(C)C=C3)cc1NS(=O)(=O)C1CC1", "Tested System": "LO2", "Observed Value": "< 4.70"}

Case COc1ccc(/C=C/C(=O)c2ccc(OC)c3c2OC(C)(C)C=C3)cc1NCCN1CCOCC1 , LO2, pIC50 recorded as 5.58

----------
Tested on: HCT116
Assay: Cell proliferative assay (MTT), HCT116
Assay type: cell-based
Settings: Homo sapiens, HCT-116, 72 h incubation, read-out: IC50s HCT116
Reported Endpoint: IC50

Sample records with IC50:
{"Chemical Smiles": "COc1ccc(C(=O)/C=C/c2cccs2)c2c1C=CC(C)(C)O2", "IC50": "> 10 µM"}
{"Chemical Smiles": "COc1ccc(C(=O)/C=C/c2ccc(O)cc2)c2c1C=CC(C)(C)O2", "IC50": "> 10 µM"}

IC50 recorded for this compound, COc1ccccc1/C=C/C(=O)c1ccc(OC)c2c1OC(C)(C)C=C2 , is > 10 µM

IC50 recorded for this compound, CCN(CC)c1ccc(/C=C/C(=O)c2ccc(OC)c3c2OC(C)(C)C=C3)cc1 , is > 10 µM

IC50 recorded for this compound, COc1ccc(C(=O)/C=C/c2ccc(N3CCCC3)cc2)c2c1C=CC(C)(C)O2 , is 8.88 µM

----------
The following compounds are listed with their measured pIC50 values.
Test system: LO2
Assay: Cell proliferative assay (MTT), LO2
Assay type: cell-based
Conditions: Homo sapiens, L02, 72 h incubation, read-out: IC50s LO2
pIC50: −log10 of the molar value.

{"Compound": "COc1ccc(/C=C/C(=O)c2ccc(OC)c3c2OC(C)(C)C=C3)cc1OCCN1CCCC1 [SKLBC-59]", "pIC50": "< 4.70"}

pIC50 recorded for this compound, COc1ccc(/C=C/C(=O)c2ccc(OC)c3c2OC(C)(C)C=C3)cc1OC(=O)C12CC3CC(CC(C3)C1)C2 [SKLBC-78] , is 5.25

pIC50 recorded for this compound, COc1ccc(/C=C/C(=O)c2ccc(OC)c3c2OC(C)(C)C=C3)cc1OC(=O)c1ccc(Br)cc1 [SKLBC-66] , is 5.08

pIC50 recorded for this compound, CCC(=O)Nc1cc(/C=C/C(=O)c2ccc(OC)c3c2OC(C)(C)C=C3)ccc1OC [SKLBC-93] , is 5.11

pIC50 recorded for this compound, COc1ccc(/C=C/C(=O)c2ccc(OC)c3c2OC(C)(C)C=C3)cc1OS(=O)(=O)Cc1ccccc1 [SKLBC-70] , is < 5.00

pIC50 recorded for this compound, CCN(CC)c1ccc(/C=C/C(=O)c2ccc(OS(=O)(=O)C3CC3)c3c2OC(C)(C)C=C3)cc1 [SKLBC-53] , is < 5.00

pIC50 recorded for this compound, COc1ccc(/C=C/C(=O)c2ccc(OC)c3c2OC(C)(C)C=C3)cc1NC(C)=O [SKLBC-92] , is < 5.00

pIC50 recorded for this compound, CCN(CC)c1ccc(/C=C/C(=O)c2ccc(OS(=O)(=O)c3ccc(C)cc3)c3c2OC(C)(C)C=C3)cc1 [SKLBC-46] , is 5.09

pIC50 recorded for this compound, CCN(CC)c1ccc(/C=C/C(=O)c2ccc(OC(C)=O)c3c2OC(C)(C)C=C3)cc1 [SKLBC-48] , is < 4.70

pIC50 recorded for this compound, COc1ccc(/C=C/C(=O)c2ccc(OC)c3c2OC(C)(C)C=C3)cc1NC(N)=O [SKLBC-98] , is < 5.00

pIC50 recorded for this compound, C=CC(=O)Nc1cc(/C=C/C(=O)c2ccc(OC)c3c2OC(C)(C)C=C3)ccc1OC [SKLBC-94] , is < 4.70

pIC50 recorded for this compound, COc1ccc(/C=C/C(=O)c2ccc(OC)c3c2OC(C)(C)C=C3)cc1OS(=O)(=O)c1ccc(C)cc1 [SKLBC-69] , is < 5.00

pIC50 recorded for this compound, CCCCC(=O)Nc1cc(/C=C/C(=O)c2ccc(OC)c3c2OC(C)(C)C=C3)ccc1OC [SKLBC-95] , is < 4.70

pIC50 recorded for this compound, COc1ccc(/C=C/C(=O)c2ccc(OC)c3c2OC(C)(C)C=C3)cc1[N+](=O)[O-] [SKLBC-82] , is < 4.70

pIC50 recorded for this compound, COc1ccc(/C=C/C(=O)c2ccc(OC)c3c2OC(C)(C)C=C3)cc1N(Cc1ccccc1)Cc1ccccc1 [SKLBC-91] , is < 5.00

pIC50 recorded for this compound, CCC(=O)Oc1cc(/C=C/C(=O)c2ccc(OC)c3c2OC(C)(C)C=C3)ccc1OC [SKLBC-76] , is < 5.00

----------
Test system: HCT116
Assay: Cell proliferative assay (MTT), HCT116
Type: cell-based
Details: Homo sapiens, HCT-116, 72 h incubation, read-out: IC50s HCT116
The following compounds are listed with their measured IC50 values.

{"Chemical Smiles": "COc1ccc(C(=O)/C=C/c2ccc(C(F)(F)F)cc2)c2c1C=CC(C)(C)O2", "IC50": "> 10 µM"}
{"Chemical Smiles": "COc1ccc(C(=O)/C=C/c2ccc(N(c3ccccc3)c3ccccc3)cc2)c2c1C=CC(C)(C)O2", "IC50": "4.53 µM"}
{"Chemical Smiles": "COc1ccc(C(=O)/C=C/c2ccc3ccccc3n2)c2c1C=CC(C)(C)O2", "IC50": "> 10 µM"}
{"Chemical Smiles": "COc1ccc(C(=O)/C=C/c2ccc(N(C)C)cc2)c2c1C=CC(C)(C)O2", "IC50": "1.63 µM"}

IC50 recorded for this compound, COc1ccc(C(=O)/C=C/c2ccccc2Cl)c2c1C=CC(C)(C)O2 , is > 10 µM

IC50 recorded for this compound, COc1ccc(C(=O)/C=C/c2ccc(-n3ccnc3)cc2)c2c1C=CC(C)(C)O2 , is 8.05 µM

IC50 recorded for this compound, COc1ccc(C(=O)/C=C/c2ccc3ccccc3c2)c2c1C=CC(C)(C)O2 , is > 10 µM

IC50 recorded for this compound, COc1ccc(C(=O)/C=C/c2cccc(Cl)c2)c2c1C=CC(C)(C)O2 , is > 10 µM

IC50 recorded for this compound, COc1ccc(C(=O)/C=C/c2cccc3ccccc23)c2c1C=CC(C)(C)O2 , is > 10 µM

IC50 recorded for this compound, COc1cccc(/C=C/C(=O)c2ccc(OC)c3c2OC(C)(C)C=C3)c1 , is > 10 µM

IC50 recorded for this compound, COc1ccc(C(=O)/C=C/c2ccsc2)c2c1C=CC(C)(C)O2 , is > 10 µM

IC50 recorded for this compound, COc1ccc(C(=O)/C=C/c2ccc(O)c(Br)c2)c2c1C=CC(C)(C)O2 , is > 10 µM

IC50 recorded for this compound, COc1ccc(C(=O)/C=C/c2cc(OC)c(OC)c(OC)c2)c2c1C=CC(C)(C)O2 , is 7.65 µM

IC50 recorded for this compound, COc1ccc(/C=C/C(=O)c2ccc(OC)c3c2OC(C)(C)C=C3)cc1 , is 4.66 µM

IC50 recorded for this compound, COc1ccc(C(=O)/C=C/c2ccccc2)c2c1C=CC(C)(C)O2 , is > 10 µM

IC50 recorded for this compound, COc1ccc(C(=O)/C=C/c2ccc([N+](=O)[O-])cc2)c2c1C=CC(C)(C)O2 , is > 10 µM

IC50 recorded for this compound, COc1cc(/C=C/C(=O)c2ccc(OC)c3c2OC(C)(C)C=C3)cc(OC)c1O , is > 10 µM

IC50 recorded for this compound, COc1ccc(C(=O)/C=C/c2ccccn2)c2c1C=CC(C)(C)O2 , is > 10 µM

IC50 recorded for this compound, COc1ccc(C(=O)/C=C/c2ccc(F)cc2)c2c1C=CC(C)(C)O2 , is > 10 µM

IC50 recorded for this compound, COc1ccc(C(=O)/C=C/c2ccc(Br)cc2)c2c1C=CC(C)(C)O2 , is 5.82 µM

IC50 recorded for this compound, COc1ccc(C(=O)/C=C/c2ccco2)c2c1C=CC(C)(C)O2 , is > 10 µM
